Entry source: PubChem BioAssay (NCATS)

# assay-overview: qHTS Screen of the MIPE 4.0 Collection Against Ewings Sarcoma (RDES) (AID 1259252); note: nearly all actives have a fitted effect of over 35% in size
# condition: RD-ES Ewing sarcoma viability, CellTiter-Glo, 48 h; series mostly up to 45.8 µM
Inconclusive results are not listed. Active and inactive are the calls of the source. Calls come from the whole dose curve; as a rule, active = well fitted inhibition curve with a large enough effect; inconclusive = small, poorly fitted or top-dose-only effect; inactive = no such curve, though single readings can be large or run the other way.
Outcomes: yes (1) = active, no (0) = inactive

| compound | label-class |
| --- | --- |
| CN(C)C(=O)c1ccc(S(=O)(=O)c2ccc(NC(=O)[C@@](C)(O)C(F)(F)F)c(Cl)c2)cc1 | yes (1) |
| COc1cc2c(cc1OC)CN(CCc1ccc(NC(=O)c3cccc4c(=O)c5cccc(OC)c5[nH]c34)cc1)CC2 | yes (1) |
| CCOc1cc(N2CCC(O)CC2)ccc1Nc1ncc2c(n1)N(C)c1ccccc1C(=O)N2C | yes (1) |
| OCCn1cc(-c2cnc3nnn(Cc4ccc5ncccc5c4)c3n2)cn1 | no (0) |
| NC[C@H](O)c1ccc(O)c(O)c1 | no (0) |
| Cn1cnc([N+](=O)[O-])c1Sc1ncnc2nc[nH]c12 | yes (1) |
| CCOc1cc(C(=O)Nc2ccc(Cl)c(-c3nc4ccccc4[nH]3)c2)cc(OCC)c1OCC | yes (1) |
| CCOC(=O)C1=C[C@]2(CC)CCCN3CCc4c(n1c1ccccc41)[C@@H]32 | yes (1) |
| COc1cc(F)c(F)c(Nc2ccc(I)cc2F)c1NS(=O)(=O)C1(C[C@H](O)CO)CC1 | yes (1) |
| CCCC(CCC)C(=O)O | no (0) |
| NC(=O)C1CCCc2c1[nH]c1ccc(Cl)cc21 (stereo unspecified) | yes (1) |
| COc1ccccc1[C@H](c1cccc2ccccc12)[C@@](C)(C#N)C(=O)N1CCC(c2cccc(C(F)(F)F)c2)CC1 | yes (1) |
| CC(=O)NC(C)c1ccc(Oc2ccc(OC(C)C)cc2)cc1 (stereo unspecified) | no (0) |
| Cc1ccc(-n2nc(C(C)(C)C)cc2NC(=O)Nc2ccc(OCCN3CCOCC3)c3ccccc23)cc1 | yes (1) |
| C[C@]12CC[C@H](O)CC1=CC[C@@H]1[C@H]2CC[C@]2(C)C(c3cccnc3)=CC[C@H]12 | no (0) |
| CC(C)(Sc1ccc(CCN(CCCCC2CCCCC2)C(=O)NC2CCCCC2)cc1)C(=O)O | yes (1) |
| Cc1cc(-c2ccc(CC(=O)Nc3ccc(-c4cccnc4)cc3)cc2)ccn1 | yes (1) |
| CS(=O)(=O)Oc1ccc2c(NC(N)=O)c(C(=O)c3ccc(Cl)cc3Cl)oc2c1 | yes (1) |
| O=C(Nc1nc2ccccc2n1CCN1CCOCC1)c1cccc([N+](=O)[O-])c1 | yes (1) |
| NCCc1ccc(O)c(O)c1 | no (0) |
| CCc1ccc(CCOc2ccc(CC3SC(=O)NC3=O)cc2)nc1 (stereo unspecified) | yes (1) |

* * *

# Tested on: W2
# assay-overview: qHTS profiling for inhibitors of Plasmodium falciparum proliferation (AID 504749); note: nearly all actives have a fitted effect of over 60% in size
# condition: P. falciparum in erythrocytes, SYBR Green DNA, 72 h; series mostly up to 28.7 µM
Results filed as inconclusive are left out. Activity calls are given as the source filed them. Calls come from the whole dose curve; as a rule, active = well fitted inhibition curve with a large enough effect; inconclusive = small, poorly fitted or top-dose-only effect; inactive = flat fitted curve, though single readings scatter.
Outcomes: YES (active), NO (inactive)

| compound | label-class |
| --- | --- |
| Clc1cccc(Cl)c1NC1=NCCN1 | NO |
| N=c1nc(N2CCCCC2)cc(N)n1O | NO |
| O=C1CCc2cc(OCCCCc3nnnn3C3CCCCC3)ccc2N1 | NO |
| Nc1ccc(S(=O)(=O)Nc2ccnn2-c2ccccc2)cc1 | NO |
| C#Cc1cccc(Nc2ncnc3cc(OCCOC)c(OCCOC)cc23)c1 | YES |
| CCCc1nc2c(C)cc(-c3nc4ccccc4n3C)cc2n1Cc1ccc(-c2ccccc2C(=O)O)cc1 | YES |
| Cc1ccc(N(CC2=NCCN2)c2cccc(O)c2)cc1 | NO |
| CC(C[N+](C)(C)C)OC(N)=O (centres undefined) | NO |
| CCCCNc1cc(C(=O)O)cc(S(N)(=O)=O)c1Oc1ccccc1 | NO |
| O=c1n(CCCN2CCN(c3cccc(Cl)c3)CC2)nc2ccccn12 | NO |
| Cc1c(C)c2c(c(C)c1O)CCC(C)(COc1ccc(CC3SC(=O)NC3=O)cc1)O2 (centres undefined) | YES |
| CC(=O)Oc1ccccc1C(=O)O | NO |
| N#Cc1ccc(C(c2ccc(C#N)cc2)n2cncn2)cc1 | NO |
| NC(=O)c1cnccn1 | NO |
| CC(c1cc2ccccc2s1)N(O)C(N)=O (centres undefined) | NO |
| NC(N)=NC(=O)c1nc(Cl)c(N)nc1N | YES |
| Cc1[nH]c(=O)c(C#N)cc1-c1ccncc1 | NO |
| O=c1[nH]cnc2[nH]ncc12 | NO |
| CC(C)NCC(O)COc1ccc(COCCOC(C)C)cc1 (centres undefined) | NO |
| Nc1nc2c(ncn2COCCO)c(=O)[nH]1 | NO |
| NCCCC(N)(C(=O)O)C(F)F (centres undefined) | NO |
| CC(C)C[C@H](NC(=O)[C@@H](O)[C@H](N)Cc1ccccc1)C(=O)O | YES |
| N[C@@H]1CONC1=O | NO |
| O=C1CCC(N2C(=O)c3ccccc3C2=O)C(=O)N1 (centres undefined) | NO |
